- Target under test: T1, recombinant CD40 (human, UniProt P25942 21-193, limits assumed)
- T1 construct: the ELISA method itself names no species or construct; also called antigen CD40
- T1 sequence (P25942 21-193 limits assumed): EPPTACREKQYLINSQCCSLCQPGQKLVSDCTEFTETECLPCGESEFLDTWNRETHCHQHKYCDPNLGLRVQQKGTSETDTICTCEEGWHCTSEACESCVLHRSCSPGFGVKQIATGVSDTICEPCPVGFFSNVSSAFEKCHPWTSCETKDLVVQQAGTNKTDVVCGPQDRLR
- Test description: ELISA, plates coated with recombinant CD40, AP-conjugated anti-human kappa detection; effective concentration in supernatant read on a PG102 reference curve
Reported metric: CD40 binding (mg/L)
Kindly provide the numeric value in mg/L only, without the unit symbol.

Study these solved cases before continuing.
Binder	CD40 binding (mg/L)
PG102_Var2 (antibody, human IgG4 S228P, kappa, V domains shown, IgG4pro(deltaK)/kappa; also called FFP104_Var2) VH: QVQLQESGPGLVKPSETLSITCTVSGFSLSRYSVYWVRQPPGKGLEWMGMMWGGGSTDYSTSLKSRLTISKDTSKSQVSLKMSSLTAADTAVYYCVRTDGDYWGQGTLVTVSS VL: ELQLTQSPLSLPVTLGQPASISCRSSQSLASSSGNTYLHWYLQRPGQSPRLLIYKVSNRFSGVPDRFSGSGSGTDFTLKISRVEAEDVGVYYCSQSTHVPWTFGGGTKLEIKR	30.1
PG102_Var3 (antibody, human IgG4 S228P, kappa, V domains shown, IgG4pro(deltaK)/kappa; also called FFP104_Var3) VH: QVQLQESGPGLVKPSQTLSLTCTVSGFSLSRYSVYWVRQPPGKGLEWIGMMWGGGSTDYNPSLKSRLTISKDTSKSQVSLKLSSLTAADTAVYYCVRTDGDYWGQGTLVTVSS VL: ELQLTQSPLSLPVTLGQPASISCRSSQSLASSSGNTYLHWYLQRPGQSPRLLIYKVSNRFSGVPDRFSGSGSGTDFTLKISRVEAEDVGVYYCSQSTHVPWTFGGGTKLEIKR	38.5

Task: # CD40 binding lookup, item PG102_Var11 (antibody, human IgG4 S228P, kappa, V domains shown, IgG4pro(deltaK)/kappa; also called FFP104_Var11) VH: QVQLQESGPGLVKPSQTLSLTCTVSGFSLSRYSVYWVRQPPGKGLEWIGMMWGGGSTDYNPSLKSRLTISKDTSKSQVSLKLSSLTAADTAVYYCVRTDGDYWGQGTLVTVSS VL: ELQLTQSPLSLPVTLGQPASISCRSSQSLADSQGNTYLHWYLQRPGQSPRLLIYKVSNRFSGVPDRFSGSGSGTDFTLKISRVEAEDVGVYYCSQSTHVPWTFGGGTKLEIKR
Result: 12.6
